System: MV-4-11
METHOD SUMMARY: Cell growth inhibition assay (CellTiter-Glo), MV-4-11
Type: cell-based, human
EXPERIMENTAL CONDITIONS: MV-4-11 cells, 4 days, total growth inhibition
MV-4-11 TGI by entry:

{"MOLECULE": "CCOC(=O)n1c(-c2cccnc2OC)c(C)c2c1C(c1ccc(Cl)cc1)N(c1cc(C)c3nnc(C)n3c1)C2=O (stereo not shown) [Example 124]", "STUDY TARGET": "MV-4-11", "MV-4-11 TGI [nM]": 13.2}
{"MOLECULE": "CCOC(=O)Nc1cn(C)c2c1C(=O)N(c1cc(C)c3nnn(C)c3n1)C2c1ccc(Cl)cc1 (stereo not shown) [Example 97]", "STUDY TARGET": "MV-4-11", "MV-4-11 TGI [nM]": 24.95}
{"MOLECULE": "Cc1cn(CC(=O)N(C)C)c2c1C(=O)N(c1cc(C)c3nnc(C)n3c1)C2c1ccc(Cl)cc1 (stereo not shown) [Example 129]", "STUDY TARGET": "MV-4-11", "MV-4-11 TGI [nM]": 143}
{"MOLECULE": "Cc1c[nH]c2c1C(=O)N(c1cc(C)c3nnc(C)n3c1)C2c1ccc(Cl)cc1 (stereo not shown) [Example 3]", "STUDY TARGET": "MV-4-11", "MV-4-11 TGI [nM]": 18.75}

---

System: MV-4-11
Param label: returns Criterion met when GI50 < 20 nM, returns Criterion not met otherwise, including exact equality.

{"MOLECULE": "COc1cccc(C2c3c(ccn3C)C(=O)N2c2cc(Cl)c(=O)n(C)c2)c1 (stereo not shown)", "QUALITATIVE LABEL": "Criterion not met"}
{"MOLECULE": "COc1ccc(C2c3c(ccn3C)C(=O)N2c2cc(C)c(=O)n(C)c2)cc1 (stereo not shown)", "QUALITATIVE LABEL": "Criterion not met"}
{"MOLECULE": "Cc1cc(N2C(=O)c3c(C4CC4)cn(C)c3[C@H]2c2ccc(Cl)cc2)cn2c(C)nnc12", "QUALITATIVE LABEL": "Criterion met"}
{"MOLECULE": "Cn1cc(N2C(=O)c3cc(-c4cccn(C)c4=O)n(C4CC4)c3C2c2ccc(Cl)cc2)cc(Cl)c1=O (stereo not shown)", "QUALITATIVE LABEL": "Criterion not met"}
{"MOLECULE": "Cn1ccc2c1C(c1ccc(C#N)cc1)N(c1cc(Cl)c(=O)n(C)c1)C2=O (stereo not shown)", "QUALITATIVE LABEL": "Criterion not met"}
{"MOLECULE": "CC(=O)Nc1cn(C)c2c1C(=O)N(c1cc(C)c3nnc(C(F)F)n3c1)C2c1ccc(Cl)cc1 (stereo not shown)", "QUALITATIVE LABEL": "Criterion not met"}
{"MOLECULE": "CCOC(=O)n1c(C2=CCOCC2)c(C)c2c1C(c1ccc(Cl)cc1)N(c1cc(C)c3nnc(C)n3c1)C2=O (stereo not shown)", "QUALITATIVE LABEL": "Criterion met"}
{"MOLECULE": "CC(=O)N1CC(c2cn(C)c3c2C(=O)N(c2cc(C)c4nnc(C)n4c2)C3c2ccc(Cl)cc2)C1 (stereo not shown)", "QUALITATIVE LABEL": "Criterion not met"}
{"MOLECULE": "Cc1cn(C)c2c1C(=O)N(c1cc(C)c3nnc(C(F)F)n3c1)C2c1ccc(Cl)cc1 (stereo not shown)", "QUALITATIVE LABEL": "Criterion met"}
{"MOLECULE": "Cc1cc(N2C(=O)c3c(C4CC4)c(C4=CCOCC4)n(C)c3C2c2ccc(Cl)cc2)cn2c(C)nnc12 (stereo not shown)", "QUALITATIVE LABEL": "Criterion met"}
{"MOLECULE": "Cc1ccc(C2c3c(ccn3C)C(=O)N2c2cc(C)c(=O)n(C)c2)cc1 (stereo not shown)", "QUALITATIVE LABEL": "Criterion not met"}
{"MOLECULE": "Cc1cc(N2C(=O)c3c(NC(=O)CCN(C)C)cn(C)c3C2c2ccc(Cl)cc2)nn2c(C(F)F)nnc12 (stereo not shown)", "QUALITATIVE LABEL": "Criterion met"}
{"MOLECULE": "Cc1cn(CC(=O)N(C)C)c2c1C(=O)N(c1cc(C)c3nnc(C)n3c1)C2c1ccc(Cl)cc1 (stereo not shown)", "QUALITATIVE LABEL": "Criterion not met"}
{"MOLECULE": "COc1ncc(-c2cc3c(n2C)[C@@H](c2ccc(Cl)cc2)N(c2cc(C)c(=O)n(C)c2)C3=O)cn1", "QUALITATIVE LABEL": "Criterion not met"}
{"MOLECULE": "Cc1cc(N2C(=O)c3c(C4CC4)cn(C)c3C2c2ccc(Cl)cc2)cn(C)c1=O (stereo not shown)", "QUALITATIVE LABEL": "Criterion not met"}
{"MOLECULE": "Cc1cc(N2C(=O)c3ccn(C)c3C2c2ccc(Cl)cc2)cn(C)c1=O (stereo not shown)", "QUALITATIVE LABEL": "Criterion not met"}

Reference source for all entries: patent US9550796B2
